Target: T1, N(A2B2)A-avi-His (biotinylated at the avi tag)
T1 construct: also called biotinylated N(A2B2)A-avi-His
T1 chain: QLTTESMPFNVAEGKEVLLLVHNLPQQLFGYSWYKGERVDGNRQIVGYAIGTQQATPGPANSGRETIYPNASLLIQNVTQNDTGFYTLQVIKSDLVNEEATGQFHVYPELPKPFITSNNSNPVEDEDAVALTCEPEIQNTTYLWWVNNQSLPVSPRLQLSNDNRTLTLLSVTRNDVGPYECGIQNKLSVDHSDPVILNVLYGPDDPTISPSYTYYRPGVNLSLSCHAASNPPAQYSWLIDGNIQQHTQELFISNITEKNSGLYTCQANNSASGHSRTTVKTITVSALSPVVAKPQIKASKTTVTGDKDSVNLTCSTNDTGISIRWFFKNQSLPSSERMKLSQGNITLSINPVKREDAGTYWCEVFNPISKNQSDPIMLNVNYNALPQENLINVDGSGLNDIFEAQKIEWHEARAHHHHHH
Assay: SPR, ProteOn, antigen on NLC chip, purified Fab as analyte
Assignment: determine reported Kd for the given binders.

Data request: Which Kd value is on record for P005.102 Fab (Fab, V domains shown, Fab from E. coli) VH: EVQLLESGGGLVQPGGSLRLSCAASGFTFTDYYMNWVRQAPGKGLEWLGFIGNKANAYTTEYSASVKGRFTISRDKSKNTLYLQMNSLRAEDTATYYCTRDRGIRFQFDYWGQGTTVTVSS VL: EIVLTQSPATLSLSPGERATLSCRASSSVTYIHWYQQKPGQAPRSWIYATSNLASGIPARFSGSGSGTDFTLTISSLEPEDFAVYYCQHWSSKSPTFGQGTKLEIK ?
Data returned: 0.29 nM

Data request: GET /values?readout=Kd&item= P002.139 Fab (Fab, V domains shown, Fab from E. coli) VH: EVQLLESGGGLVQPGGSLRLSCAASGFYFTDYAMNWVRQAPGKGLEWLGVISNKANAYTTEYSASVKGRFTISRDKSKNTLYLQMNSLRAEDTATYYCTRDRGLRFYFDYWGQGTTVTVSS VL: EIVLTQSPATLSLSPGERATLSCHASSSVTYIHWYQQKPGQAPRSWIYATSNLASGIPARFSGSGSGTDFTLTISSLEPEDFAVYYCQHWSSKPPTFGQGTKLEIK
Data returned: 0.63 nM

Data request: So what does the record say about Kd for P006.038 Fab (Fab, V domains shown, Fab from E. coli) VH: EVQLLESGGGLVQPGGSLRLSCAASGFTFTDYYMNWVRQAPGKGLEWLGFIGNKANAYTTEYSASVKGRFTISRDKSKNTLYLQMNSLRAEDTATYYCTRDRGIRFGFDYWGQGTTVTVSS VL: EIVLTQSPATLSLSPGERATLSCRASSSVTYIHWYQQKPGQAPRSWIYATSNLASGIPARFSGSGSGTDFTLTISSLEPEDFAVYYCQHWSSVPPTFGQGTKLEIK ?
Data returned: 0.25 nM

Data request: For the binder shown here, P005.097 Fab (Fab, V domains shown, Fab from E. coli) VH: EVQLLESGGGLVQPGGSLRLSCAASGFTFTDYYMNWVRQAPGKGLEWLGFIGNKANAYTTEYSASVKGRFTISRDKSKNTLYLQMNSLRAEDTATYYCTRDRGLRFSFDYWGQGTTVTVSS VL: EIVLTQSPATLSLSPGERATLSCRASSSVTYIHWYQQKPGQAPRSWIYATSNLASGIPARFSGSGSGTDFTLTISSLEPEDFAVYYCQHWSSQPPTFGQGTKLEIK , give the reported Kd.
Data returned: 0.91 nM
